assay: surface tension by Du Noüy ring method, Krüss K20 EasyDyne tensiometer; type: physicochemical; conditions: 12.5 % w/w solvent in water, room temperature

>  <MOLECULE>
CC(O)CO (stereo not drawn)

>  <Surface tension, dynes/cm>
59.7

$$$$
>  <MOLECULE>
CC1COC(=O)O1 (stereo not drawn) [Propylene Carbonate, propylene carbonate]

>  <Surface tension, dynes/cm>
46.5

$$$$
>  <MOLECULE>
OCCCO

>  <Surface tension, dynes/cm>
61.1

$$$$

* * *

test: surface tension by Du Noüy ring method, Krüss K20 EasyDyne tensiometer; format: physicochemical; details: 100 % w/w solvent, room temperature
Item-by-item account of Surface tension

>  <COMPOUND>
CC(O)CO (centres unmarked) [Propylene Glycol USP, propylene glycol]

>  <Surface tension>
36.1 dynes/cm

$$$$
>  <COMPOUND>
OCC(O)CO [Glycerin USP, glycerin]

>  <Surface tension>
62.0 dynes/cm

$$$$
>  <COMPOUND>
CCO [Ethanol (200 proof), ethanol]

>  <Surface tension>
22.3 dynes/cm

$$$$
>  <COMPOUND>
CO[C@H]1CO[C@H]2[C@@H]1OC[C@H]2OC [Dimethyl Isosorbide, dimethyl isosorbide]

>  <Surface tension>
39.3 dynes/cm

$$$$
>  <COMPOUND>
CC(C)O [Isopropyl Alcohol, isopropyl alcohol]

>  <Surface tension>
21.1 dynes/cm

$$$$

* * *

experiment: surface tension by Du Noüy ring method, Krüss K20 EasyDyne tensiometer; type: physicochemical; conditions: 7.5 % w/w solvent in water, room temperature
Recorded measurements of Surface tension, one per entry

>  <MOLECULE>
CCO [Ethanol (200 proof), ethanol]

>  <Surface tension>
51.4 dynes/cm

$$$$
>  <MOLECULE>
CC(O)CO (stereo not shown) [Propylene Glycol USP, propylene glycol]

>  <Surface tension>
63.6 dynes/cm

$$$$
>  <MOLECULE>
CO[C@H]1CO[C@H]2[C@@H]1OC[C@H]2OC [Dimethyl Isosorbide, dimethyl isosorbide]

>  <Surface tension>
52.1 dynes/cm

$$$$
>  <MOLECULE>
CC(C)O [Isopropyl Alcohol, isopropyl alcohol]

>  <Surface tension>
42.0 dynes/cm

$$$$
